system: E. coli TESEC Mtb Alr; experiment: growth (OD600 after 10 h); higher = more growth (less inhibition); settings: arabinose 1000 nM; compound 0.1 mM; raw OD600 reference: median of DMSO wells 0.294, cell-free background 0.041
Where a name gives a salt, the structure may show the parent alone.
Quantity Measured: growth
# respond with the number and nothing more

COc1ccccc1OCCNCC(O)COc1cccc2[nH]c3ccccc3c12 (stereo not drawn) [Carvedilol] ... 0.0415
CSc1nc2cc(Cl)c(Oc3cccc(Cl)c3Cl)cc2[nH]1 [Triclabendazole] ... 0.0531
CC=CC1=C(C(=O)O)N2C(=O)[C@@H](NC(=O)[C@H](N)c3ccc(O)cc3)[C@H]2SC1 [Cefprozil] ... 0.303

Given item COc1c(N2CCNC(C)C2)c(F)cc2c(=O)c(C(=O)O)cn(C3CC3)c12 (stereo not drawn) [Gatifloxacin] , the value recorded as its growth is 0.0402

Given item CN1Cc2c(N)cccc2C(c2ccccc2)C1 (stereo not drawn) [Nomifensine maleate] , the value recorded as its growth is 0.273

Given item COc1cc2nc(N3CCN(C(=O)c4ccco4)CC3)nc(N)c2cc1OC [Prazosin hydrochloride] , the value recorded as its growth is 0.319

Given item CN[C@H](CC(C)C)C(=O)N[C@H]1C(=O)N[C@@H](CC(N)=O)C(=O)N[C@H]2C(=O)N[C@H]3C(=O)N[C@H](C(=O)N[C@H](C(=O)O)c4cc(O)cc(O)c4-c4cc3ccc4O)[C@H](O)c3ccc(c(Cl)c3)Oc3cc2cc(c3O[C@@H]2O[C@H](CO)[C@@H](O)[C@H](O)[C@H]2O[C@H]2C[C@](C)(N)[C@H](O)[C@H](C)O2)Oc2ccc(cc2Cl)[C@H]1O [Vancomycin hydrochloride] , the value recorded as its growth is 0.084

Given item CC(C)(O)c1ccccc1CC[C@@H](SCC1(CC(=O)O)CC1)c1cccc(/C=C/c2ccc3ccc(Cl)cc3n2)c1 [Montelukast] , the value recorded as its growth is 0.281

Given item CN1CCN(c2c(F)cc3c(=O)c(C(=O)O)cn(CCF)c3c2F)CC1 [Fleroxacin] , the value recorded as its growth is 0.0472

Given item COC(=O)Nc1nc2ccc(SC(C)C)cc2[nH]1 [Methiazole] , the value recorded as its growth is 0.278

----------
Each entry below carries its reported growth.
system: E. coli TESEC Mtb Alr; assay: growth (OD600 after 10 h); higher = more growth (less inhibition); settings: arabinose 1000 nM; compound 0.1 mM; raw OD600 reference: median of DMSO wells 0.294, cell-free background 0.041
# respond with the number and nothing more

COc1ccc2[nH]c([S+]([O-])Cc3ncc(C)c(OC)c3C)nc2n1 (stereo unspecified) ... 0.192
CC1(C)O[C@@H]2C[C@H]3[C@@H]4C[C@H](F)C5=CC(=O)C=C[C@]5(C)[C@@]4(F)[C@@H](O)C[C@]3(C)[C@]2(C(=O)CO)O1 [Fluocinolone acetonide] ... 0.262
Cc1cn([C@H]2C[C@H](N=[N+]=[N-])[C@@H](CO)O2)c(=O)[nH]c1=O ... 0.0804
CN(CCCN1c2ccccc2CCc2ccccc21)CC(=O)c1ccc(Cl)cc1 ... 0.199
CCCc1nc2c(C)cc(-c3nc4ccccc4n3C)cc2n1Cc1ccc(-c2ccccc2C(=O)O)cc1 ... 0.271

Moving on to the next compound.
Given item CCN1CCN(C(=O)N[C@@H](C(=O)N[C@@H]2C(=O)N3C(C(=O)O)=C(CSc4nnnn4C)CS[C@H]23)c2ccc(O)cc2)C(=O)C1=O [Cefoperazone dihydrate] , the value recorded as its growth is 0.321

----------
Each entry below carries its reported growth.
tested on: E. coli TESEC Alr+ wild-type control; assay: growth (OD600 after 10 h); higher = more growth (less inhibition); conditions: compound 0.1 mM; raw OD600 reference: median of DMSO wells 0.241, cell-free background 0.041
# respond with the number and nothing more

COc1ccc(-c2ccc3cc(C(=O)O)ccc3c2)cc1C12CC3CC(CC(C3)C1)C2 [Adapalene] ... 0.234

Given item CC[C@H]1OC(=O)[C@H](C)[C@@H](O[C@H]2C[C@@](C)(OC)[C@@H](O)[C@H](C)O2)[C@H](C)[C@@H](O[C@@H]2O[C@H](C)C[C@H](N(C)C)[C@H]2O)[C@](C)(O)C[C@@H](C)C(=O)[C@H](C)[C@@H](O)[C@]1(C)O [Erythromycin] , the value recorded as its growth is 0.0411

----------
tested on: E. coli TESEC Mtb Asd; assay: growth (OD600 after 10 h); higher = more growth (less inhibition); conditions: arabinose induction (level): High; compound 0.1 mM; raw OD600 reference: median of DMSO wells 0.331, cell-free background 0.041
Counter-ions that a name gives are not always drawn.
Quantity Measured: growth
# respond with the number and nothing more

Some compounds with recorded growth:
CC[N+](CC)(CC(=O)Nc1c(C)cccc1C)Cc1ccccc1 [Denatonium benzoate] ... 0.401
CC(=O)Nc1c(I)c(NC(C)=O)c(I)c(C(=O)O)c1I [Diatrizoic acid dihydrate] ... 0.297
CCc1oc2ccccc2c1C(=O)c1cc(Br)c(O)c(Br)c1 [Benzbromarone] ... 0.0473
CC[C@H](C)C(=O)O[C@H]1C[C@@H](C)C=C2C=C[C@H](C)[C@H](CC[C@@H]3C[C@@H](O)CC(=O)O3)[C@H]21 [Lovastatin] ... 0.276
CCn1cc(C(=O)O)c(=O)c2cc(F)c(N3CCNC(C)C3)c(F)c21 (configuration not stated) [Lomefloxacin hydrochloride] ... 0.0476

Observed growth, E. coli TESEC Mtb Asd, N/C(=N\C(=O)c1nc(Cl)c(N)nc1N)NCc1ccccc1 [Benzamil hydrochloride] : 0.163

Observed growth, E. coli TESEC Mtb Asd, CCC[C@@H]1C[C@@H](C(=O)N[C@@H]([C@H]2O[C@H](SC)[C@H](O)[C@@H](O)[C@H]2O)[C@@H](C)O)N(C)C1 [Lincomycin hydrochloride] : 0.151

----------
test system: E. coli TESEC Mtb DapB; experiment: growth (OD600 after 10 h); higher = more growth (less inhibition); details: arabinose induction (level): Low; compound 0.1 mM; raw OD600 reference: median of DMSO wells 0.227, cell-free background 0.041
Where a name gives a salt, the structure may show the parent alone.
Values of growth greater than or equal to 0.2 map to Y; values below map to N.

Study these solved cases before continuing.
O=C1NCN(c2ccccc2)C12CCN(CCCC(c1ccc(F)cc1)c1ccc(F)cc1)CC2 [Fluspirilen] ... N
CC(C)(C(=O)c1cccnc1)c1cccnc1 [Metyrapone] ... N
CC1(C)[C@H](C(=O)O)N2C(=O)C[C@H]2S1(=O)=O [Sulbactam] ... Y
N#Cc1cc(NC(=O)C(=O)O)c(Cl)c(NC(=O)C(=O)O)c1 [Lodoxamide] ... Y
Cc1cc(NC(=O)C2=C(O)c3ccccc3S(=O)(=O)N2C)no1 [Isoxicam] ... Y

Textbook exercise: given the entry O=C1NCCN1CCN1CCC(c2cn(-c3ccc(F)cc3)c3ccc(Cl)cc23)CC1 [Sertindole] , state whether its growth is greater than or equal to 0.2.
N

Textbook exercise: given the entry Cc1ccc(-c2ncc(Cl)cc2-c2ccc(S(C)(=O)=O)cc2)cn1 [Etoricoxib] , state whether its growth is greater than or equal to 0.2.
Y

Textbook exercise: given the entry N[C@@H](C(=O)N[C@@H]1C(=O)N2C(C(=O)O)=C(Cl)CC[C@H]12)c1ccccc1 [Loracarbef] , state whether its growth is greater than or equal to 0.2.
Y

Textbook exercise: given the entry COc1ccc(OC)c(C(O)CNC(=O)CN)c1 (configuration not stated) [Midodrine hydrochloride] , state whether its growth is greater than or equal to 0.2.
Y

Textbook exercise: given the entry CCCCC(O)c1ccccc1 (configuration not stated) [Fenipentol] , state whether its growth is greater than or equal to 0.2.
Y

Textbook exercise: given the entry CCOC(=O)/C=C(C)/C=C/C=C(C)/C=C/c1c(C)cc(OC)c(C)c1C [Etretinate] , state whether its growth is greater than or equal to 0.2.
N

Textbook exercise: given the entry CC[C@H]1OC(=O)C[C@@H](O)[C@H](C)[C@@H](O[C@@H]2O[C@H](C)[C@@H](O[C@H]3C[C@@](C)(O)[C@@H](O)[C@H](C)O3)[C@H](N(C)C)[C@H]2O)[C@@H](CC=O)C[C@@H](C)C(=O)/C=C/C(C)=C/[C@@H]1CO[C@@H]1O[C@H](C)[C@@H](O)[C@@H](OC)[C@H]1OC [Tylosin] , state whether its growth is greater than or equal to 0.2.
N

----------
test system: E. coli TESEC Mtb Alr; experiment: growth (OD600 after 10 h); higher = more growth (less inhibition); conditions: arabinose 1000 nM; compound 0.1 mM; raw OD600 reference: median of DMSO wells 0.294, cell-free background 0.041
Values of growth greater than or equal to 0.3 map to Fulfilled; values below map to Not fulfilled.

O=C(O)CCNC(=O)c1ccc(/N=N/c2ccc(O)c(C(=O)O)c2)cc1 [Balsalazide Sodium] ... Fulfilled

Textbook exercise: given the entry `CC#C[C@]1(O)CC[C@H]2[C@@H]3CCC4=CC(=O)CCC4=C3[C@@H](c3ccc(N(C)C)cc3)C[C@@]21C` , state whether its growth is greater than or equal to 0.3.
Not fulfilled
